Values compiled from paper PMC4268426.

Test: clinical
Details: female, human, in vivo, po
Measurement Label: Tmax (h)
Number in h, nothing else.

Input: Given the compound C#C[C@]1(O)CC[C@H]2[C@@H]3CCC4=CC(=O)CC[C@@H]4[C@H]3CC[C@@]21C [norethindrone] , what is its reported Tmax?
Output: 1.32

###

Assay: clinical
Conditions: female, human, in vivo, po
Measurement Label: Vd/F (L)
Number in L, nothing else.

Input: Given the compound C#C[C@]1(O)CC[C@H]2[C@@H]3CCC4=CC(=O)CC[C@@H]4[C@H]3CC[C@@]21C , what is its reported Vd/F?
Output: 313

###

Conditions: female, human, in vivo, po, 0.35 mg
Measurement Label: concentration at 24 h

Input: Given the compound C#C[C@]1(O)CC[C@H]2[C@@H]3CCC4=CC(=O)CC[C@@H]4[C@H]3CC[C@@]21C , what is its reported concentration at 24 h?
Output: 0.27 ng/mL
